# protocol-summary: Plasma pharmacokinetics, QD and BID cohorts (non-compartmental)
# Type: in vivo, human
# assay-context: human, plasma, oral, 75 mg, 75 mg BID, C1D21, mean, n=3, plasma; read-out: AUC0–last
# Procedure: PK parameters were calculated by standard non-compartmental methods for SLC-391. Due to the long half-life of SLC-391 compared to the dosing interval, it was not possible to calculate a number of PK parameters, including plasma half-life and rate of elimination. Accumulation was assessed from the mean accumulation ratio factor (AR factor) calculated as the repeated dose (C1D21) mean value/single dose (C1D1) mean value for the PK parameters Cmax, AUC0–12, and AUC0–last for each dose group. […]
readout-type: AUC(0-t) (ng·h/mL)
Number only, in ng·h/mL; omit the unit.

For the compound Nc1ncc(-c2cnn(C3CCNCC3)c2)cc1-c1nnc(CC2CC2)o1 , report AUC(0-t).
4420
